Entry source: patent US20250313549A1

Give measured percentage damage caused to the plant, ZEAMX for each item. Keep answers brief.
test system: Zea mays (ZEAMX); assay: Pre-emergence test, herbicidal damage; format: in vivo; conditions: 1000 g/ha, evaluated after 13 days

>>> obs_value("CCOC(=O)c1nn(-c2ccnc(OC(F)F)c2)c2cccc(C(C)=O)c2c1=O")
"0 (0=0%)"
>>> obs_value("CCOC(=O)c1nn(-c2ccc(C(F)F)nc2)c2cccc(Br)c2c1=O")
"0 (0=0%)"
>>> obs_value("CCOC(=O)c1nn(-c2ncc(Cl)cn2)c2cccc(Br)c2c1=O")
"0 (0=0%)"
>>> obs_value("CCOC(=O)c1nn(-c2cc(OC)ncn2)c2cccc(Br)c2c1=O")
"0 (0=0%)"

Take each entry in turn and give its percentage damage caused to the plant, ZEAMX.
1. CCOC(=O)c1nn(-c2ccc(OC(F)F)nc2)c2cccc(Br)c2c1=O
2. N#Cc1cccc2c1c(=O)c(C(=O)O)nn2-c1cncnc1
3. CCOC(=O)c1nn(-c2ccc(OC(F)F)nc2)c2cccc(C(C)=O)c2c1=O
4. CCOC(=O)c1nn(-c2ccc(F)nc2)c2cccc(Br)c2c1=O
5. CCOC(=O)c1nn(-c2cnc(Cl)c(C)c2)c2cccc(Br)c2c1=O
6. CCOC(=O)c1nn(-c2ccnc(Br)c2)c2cccc(Br)c2c1=O

1. 1 (1=10-20%)
2. 0 (0=0%)
3. 4 (4=61-80%)
4. 0 (0=0%)
5. 0 (0=0%)
6. 0 (0=0%)

Record CCOC(=O)c1nn(-c2ccnc(OC(F)F)c2)c2cccc(/C(C)=N\OC)c2c1=O , field percentage damage caused to the plant, ZEAMX: 1 (1=10-20%)

====

Give measured percentage damage caused to the plant, SETFA for each item. Keep answers brief.
test system: Setaria faberi (SETFA); assay: Pre-emergence test, herbicidal damage; assay type: in vivo; settings: 1000 g/ha, evaluated after 13 days

Illustrative cases are given below, each with its answer.
>>> obs_value("CCOC(=O)c1nn(-c2ccnc(Br)c2)c2cccc(Br)c2c1=O")
"0 (0=0%)"
>>> obs_value("CCOC(=O)c1nn(-c2cc(OC)ncn2)c2cccc(Br)c2c1=O")
"1 (1=10-20%)"

Take each entry in turn and give its percentage damage caused to the plant, SETFA.
1. CCOC(=O)c1nn(-c2ncc(Cl)cn2)c2cccc(Br)c2c1=O
2. CCOC(=O)c1nn(-c2ccc(F)nc2)c2cccc(Br)c2c1=O
3. CCOC(=O)c1nn(-c2ccc(OC(F)F)nc2)c2cccc(Br)c2c1=O
4. N#Cc1cccc2c1c(=O)c(C(=O)O)nn2-c1cncnc1

1 (1=10-20%)
4 (4=61-80%)
1 (1=10-20%)
0 (0=0%)
